glycan array binding signal (z-score) values by entry
- measured.on: Gal(b1-4)GlcNAc(b1-2)[Gal(b1-4)GlcNAc(b1-6)]Man(a1-6)[Gal(b1-4)GlcNAc(b1-2)Man(a1-3)]Man(b1-4)GlcNAc(b1-4)[Fuc(a1-6)]GlcNAc
- protocol.summary: glycan array binding signal (z-score within array); higher = stronger binding
- particulars: glycan notation: IUPAC condensed, linker removed
This is one part of a sample in which the strongest signals are shown more often than they occur.
measured.endpoint: glycan array binding signal (z-score)

binder	measured.endpoint	test.result
Microvirin-2 (Microcystis aeruginosa) (protein) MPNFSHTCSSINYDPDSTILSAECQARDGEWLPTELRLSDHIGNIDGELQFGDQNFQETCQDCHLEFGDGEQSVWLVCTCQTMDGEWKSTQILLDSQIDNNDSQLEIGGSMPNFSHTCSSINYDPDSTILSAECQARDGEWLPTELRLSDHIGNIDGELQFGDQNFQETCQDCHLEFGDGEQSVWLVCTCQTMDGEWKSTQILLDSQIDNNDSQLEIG	glycan array binding signal (z-score)	-0.131
ArathEULS3 (Arabidopsis thaliana), Q945P1 (protein) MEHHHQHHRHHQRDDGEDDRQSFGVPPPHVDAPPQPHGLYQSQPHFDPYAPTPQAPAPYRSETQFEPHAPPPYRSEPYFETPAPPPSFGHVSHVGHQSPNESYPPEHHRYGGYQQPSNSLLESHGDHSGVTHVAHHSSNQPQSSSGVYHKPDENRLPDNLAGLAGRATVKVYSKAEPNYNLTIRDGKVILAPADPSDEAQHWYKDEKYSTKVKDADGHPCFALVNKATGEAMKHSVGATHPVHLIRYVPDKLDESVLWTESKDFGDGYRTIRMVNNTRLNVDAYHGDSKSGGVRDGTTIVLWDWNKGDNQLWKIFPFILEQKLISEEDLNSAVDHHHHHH	glycan array binding signal (z-score)	-0.026
AT1G73650(15) (Arabidopsis thaliana), F4HRY1 (protein) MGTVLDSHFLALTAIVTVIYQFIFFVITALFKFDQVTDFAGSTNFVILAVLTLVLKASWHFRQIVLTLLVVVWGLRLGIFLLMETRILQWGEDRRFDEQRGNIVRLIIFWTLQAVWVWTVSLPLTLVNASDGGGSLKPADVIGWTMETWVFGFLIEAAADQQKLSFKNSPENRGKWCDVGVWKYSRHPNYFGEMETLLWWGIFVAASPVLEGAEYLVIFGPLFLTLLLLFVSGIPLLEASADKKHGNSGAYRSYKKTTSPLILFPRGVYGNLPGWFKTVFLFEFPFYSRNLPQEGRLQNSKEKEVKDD	glycan array binding signal (z-score)	1.65
LCA (Lens culinaris), P02870 (protein) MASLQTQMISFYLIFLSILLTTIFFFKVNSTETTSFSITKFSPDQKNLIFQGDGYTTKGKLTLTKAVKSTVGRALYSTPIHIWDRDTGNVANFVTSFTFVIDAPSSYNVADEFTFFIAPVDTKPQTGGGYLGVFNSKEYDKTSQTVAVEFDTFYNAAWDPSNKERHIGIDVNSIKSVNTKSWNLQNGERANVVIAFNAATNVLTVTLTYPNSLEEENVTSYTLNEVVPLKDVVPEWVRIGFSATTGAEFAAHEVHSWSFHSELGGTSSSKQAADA	glycan array binding signal (z-score)	4.72
SalT (Orysata sativa) (protein) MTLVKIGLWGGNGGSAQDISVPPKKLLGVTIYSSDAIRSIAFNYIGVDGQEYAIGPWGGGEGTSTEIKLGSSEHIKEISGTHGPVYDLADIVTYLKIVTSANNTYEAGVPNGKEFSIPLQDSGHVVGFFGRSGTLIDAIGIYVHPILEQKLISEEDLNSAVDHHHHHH	glycan array binding signal (z-score)	0.799

# credit: the supplement of paper PMC8728848
